- TARGET DESC: human cannabinoid receptor type 1 (CB1) (human, UniProt P21554 1-472)
- Sequence (P21554 whole entry): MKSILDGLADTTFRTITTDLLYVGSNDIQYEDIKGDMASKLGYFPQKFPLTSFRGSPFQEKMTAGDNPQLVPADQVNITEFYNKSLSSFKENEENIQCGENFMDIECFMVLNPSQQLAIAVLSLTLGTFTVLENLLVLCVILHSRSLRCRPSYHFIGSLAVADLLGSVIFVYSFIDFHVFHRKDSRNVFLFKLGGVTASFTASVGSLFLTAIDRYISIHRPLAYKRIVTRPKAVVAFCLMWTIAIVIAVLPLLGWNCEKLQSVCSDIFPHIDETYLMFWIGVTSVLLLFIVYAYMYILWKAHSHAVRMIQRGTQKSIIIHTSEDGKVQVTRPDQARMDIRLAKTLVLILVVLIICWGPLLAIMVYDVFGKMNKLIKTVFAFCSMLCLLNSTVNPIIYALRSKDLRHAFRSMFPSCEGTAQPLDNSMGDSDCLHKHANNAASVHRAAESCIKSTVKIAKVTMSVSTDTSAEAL
- ASSAY PROTOCOL: cell-based or functional assay
MEASURED ATTRIBUTE: Mean cAMP (% Amgen)
Give just the numeric value; % Amgen need not be written.

Answered examples (4):
M1 mouse anti-huCB-1 antibody (antibody, V domains shown) VH: QVQLQQSGAELVRPGVSVKISCKGSGYTFTDHALHWVKQSQARSLEWIGIISTYYGDATYNQKFKGKATMTVDKSSSTAYMELARLTSEDSAFYYCARGGLYYGTNYRAMDYWGQGTSVTVSS VL: DIVMTQSQKFMSTSVGDRVSVTCKASQNVGSNVAWYQQKPGQSPKALIYSASYRYSGVPDRFTGSGSGTDFTLTISNVQSEDLAEYFCQQYNNYPFTFGSGTKLEIK :: 75
M7 mouse anti-huCB-1 antibody (antibody, V domains shown) VH: EVQLQQPGAELVRPGASVKLSCKASSYTFTRYWMNWVKQRPEEGLEWIGMIDPYDSETHYNQKFKDKAILTVDKSSSTAYMQLSTLTSEDSAVYFCARSQPRYYAMDYWGQGTSVTVSS VL: DIQMSQSPSSLSASLGERVSLTCRASQEISGFLSWLQLRPDGTIKRLIYAASSLDSGVPKRFRGSWSGSDYSLTISSLESEDFADYYCLQYSSYPYTFGGGTKLEIK :: 61
M3 mouse anti-huCB-1 antibody (antibody, V domains shown) VH: QVQLQQSGPELVRPGVSVKISCKGSGYEFTDYALHWVKQSHAETLEWIGLITTYYGDTNYNQKFKGKATMTVDKSSSTAYMELARLTSEDSAIYYCARGGYYYGTDYRYFDVWGAGTTVTVSS VL: DILLTQSPAILSVSPGERVSFSCRASQSIGTNIHWYQQRPNGSPRLLIKYASESISGIPSRFSGSGSGSDFTLSINSVESEDIADYYCQQSITWPLTFGAGTKLELK :: 71
M2 mouse anti-huCB-1 antibody (antibody, V domains shown) VH: EVQLQQSGPELVKPGTSVKISCKASGYTFTDYNMHWVKLGKSLEWIGYFYPDDGGSGYNQKFKGKATLTIDKSSSTAYMELHSLTSEDSAVYYCARGYGNSWGTYWGQGTLVTVSA VL: EIVLTQSPTTMAASPGEKITITCSASSRISSNYLYWYQQKPGFSPKLLIYRTSNLASGVPARFSGSGSGTSYSLTIGTMEAEDVATYYCQQGSSIPYTFGGGTKLEIK :: 49

Let us examine a further case.
get_value(item= M5 mouse anti-huCB-1 antibody (antibody, V domains shown, The humanized M5-H1 and M5-H2 carry the CDRs of the un-numbered VL, so that one may be the functional light chain) VH: QVHLQQSGAELVRPGSSVKISCKASGYEFSYYWMNWVKQRPGQGHEWIGQIYPGDGDTNYNGKFKGKATLTADKSSSTAYMQLSSLTSEDSAVYFCARGREAAWFAYWGQGTLVTVSA VL: DIVLAQSPASLAVSLGQRATISCRASQSVSSFRYSYLHWYQQKPGQPPRLLIKYASNLESGVPARFSGSGSGTDFTLNIHPVEEEDTATYFCQHSWEIPFTFGSGTKLEIKR , readout=Mean cAMP (% Amgen)) returns 61
